Listing of entries alongside the reported Kd.
tested_target: SARS-CoV-2 (2019-nCoV) Spike RBD protein (SARS-CoV-2 (2019-nCoV), ancestral …, UniProt P0DTC2)
experiment_description: BLI

binder | unit_abbreviation | Kd
humanized antibody hAb1.1 (antibody, V domains shown) VH: QVQLQESGPGLVKPSETLSLTCSVSGFSLINYAISWIRQPPGKGLEWIGVIWTGGGTNYNSALKSRLTISRDTSKNQVFLKMNSVTAADTAVYYCARKDYYGRYYGMDYWGQGTLVTVSS VL: QAVVTQEPSLTVSPGGTVTLTCRSSTGAVTTSNYANWLQQKPGQAPRGLIGGTNNRAPGVPPRFSGSILGDKAALTLSGAQSEDEADYYCALWYNNHWVFGGGTKLTVL | nM | 0.27
humanized nanobody hNb1.5 (VHH) VHH: EVQLVESGGGLVQPGGSLRLSCAASGSISTLNVMGWYRQAPGKQRELVAQITLDGSPEYADSVKGRFTISRDNSKNTLYLQMNSLKPEDTAVYYCKLENGGFFYYWGQGTQVTVSS | nM | 7.4
humanized antibody hAb1.5 (antibody, V domains shown) VH: QVQLQESGPGLVKPSETLSLTCTVSGFSLINYAISWIRQAPGKGLEWIGVIWTGGGTNYNSALKSRLTISVDTSKSQFSLKLSSVTAADTAVYYCARKDYYGRYYGMDYWGQGTLVTVSS VL: QAVVTQEPSLTVSPGGTVTLTCRSSTGAVTTSNYANWFQQRPGQPPRGLIGGTNNRAPGVPARFSGSILGGKAALTLSGAQPEDEADYYCALWYNNHWVFGGGTKLTVL | nM | 6.37
humanized nanobody hNb1.4 (VHH) VHH: EVQLVESGGGLVQPGGSLRLSCAASGSISTLNVMGWYRQAPGKQRELVAQITLDGSPEYADSVKGRFTISRDNAKNTLYLQMNSLRAEDTAVYYCKLENGGFFYYWGQGTQVTVSS | nM | 5.83
humanized nanobody hNb1.3 (VHH) VHH: EVQLVESGGGLVQPGGSLRLSCAASGSISTLNVMSWVRQAPGKGLEWVSSITLDGSPNYADSVKGRFTISRDNSKNTLYLQMNSLRVEDTAVYYCKLENGGFFYYWGQGTLVTVSS | nM | 58.2
alpaca nanobody 3-2A2-4 (VHH) VHH: QVQLQESGGGLVQPGESLRLSCAASGSISTLNVMGWYRQAPGKQRELVAQITLDGSPEYADSVKGRFTITKDGAQSTLYLQMNNLKPEDTAVYFCKLENGGFFYYWGQGTQVTVST | nM | 5.47
humanized nanobody hNb1.1 (VHH) VHH: EVQLVESGGGLVQPGGSLRLSCAASGSISTLNVMGWFRQAPGKGREWVAAITLDGSPYYADSVKGRFTISRDNAKNTLYLQMNSLRPEDTAVYYCKLENGGFFYYWGQGTQVTVSS | nM | 2.52
